# Test Summary: Lipophilicity determination (logD), shake-flask method
# Format: physicochemical
# Assay Conditions: n-octanol / PBS pH 7.4, shake-flask
# binarize logD: threshold -5 inclusive, high side label 1, low side label 0

| Compound | Class Label |
| --- | --- |
| O=C([O-])CN1CCN(CC(=O)[O-])CCN(CC(=O)NCC2CCC(C(=O)NC(Cc3c[nH]c4ccccc34)C(=O)NCCCCC(NC(=O)NC(CCC(=O)O)C(=O)O)C(=O)O)CC2)CCN(CC(=O)[O-])CC1.[90Y+3] (stereo not drawn) [[^90Y]Y-PSMA-D4] | label 0 |

QUERY: # bool: logD of O=C([O-])CC[C@H](NC(=O)N[C@@H](CCCCNC(=O)CCCCCCC(=O)NCCCC[C@@H](NC(=O)[C@@H](Cc1ccccc1)NC(=O)[C@@H](Cc1ccc(O)c(I)c1)NC(=O)CC[C@H](C(=O)[O-])N1CCN(CC(=O)[O-])CCN(CC(=O)[O-])CCN(CC(=O)[O-])CC1)C(=O)[O-])C(=O)[O-])C(=O)[O-].[177Lu+3].[H+].[H+].[H+].[H+].[H+] [[^177Lu]Lu-PSMA-I&T] >= -5
RESULT: label 1

QUERY: Same read-out for O=C([O-])CN(CCN(CC(=O)[O-])Cc1cc(CCC(=O)NCCCCCC(=O)NCCCC[C@H](NC(=O)N[C@@H](CCC(=O)O)C(=O)O)C(=O)O)ccc1[O-])Cc1cc(CCC(=O)O)ccc1[O-].[68Ga+3].[OH3+] [[^68Ga]Ga-PSMA-11] ?
RESULT: label 1

QUERY: Same read-out for O=C([O-])CN1CCN(CC(=O)[O-])CCN(CC(=O)NCC2CCC(C(=O)NC(Cc3c[nH]c4ccccc34)C(=O)NCCCCC(NC(=O)NC(CCC(=O)O)C(=O)O)C(=O)O)CC2)CCN(CC(=O)[O-])CC1.[177Lu+3] (stereo not drawn) [[^177Lu]Lu-PSMA-D4] ?
RESULT: label 0

---

# Tested on: LNCaP cells
# Test Summary: Cell uptake (total binding) and internalization in LNCaP cells
# Assay type: cell-based, human
# Assay Conditions: 37 °C, 2 h
Parameter Measured: Internalization (%)
One number for each entry, in %.

| Compound | Assay System | Internalization / % |
| --- | --- | --- |
| O=C([O-])CN(CCN(CC(=O)[O-])Cc1cc(CCC(=O)NCCCCCC(=O)NCCCC[C@H](NC(=O)N[C@@H](CCC(=O)O)C(=O)O)C(=O)O)ccc1[O-])Cc1cc(CCC(=O)O)ccc1[O-].[68Ga+3].[OH3+] [[^68Ga]Ga-PSMA-11] | LNCaP cells | 2.6 |

List Internalization for every entry below, keeping the order given.
1. O=C([O-])CN1CCN(CC(=O)[O-])CCN(CC(=O)NCC2CCC(C(=O)NC(Cc3c[nH]c4ccccc34)C(=O)NCCCCC(NC(=O)NC(CCC(=O)O)C(=O)O)C(=O)O)CC2)CCN(CC(=O)[O-])CC1.[90Y+3] (centres unmarked) [[^90Y]Y-PSMA-D4]
2. O=C(O)CCc1ccc(O)c(CN(CCN(CC(=O)O)Cc2cc(CCC(=O)NCCCCCC(=O)NCCCC[C@H](NC(=O)N[C@@H](CCC(=O)O)C(=O)O)C(=O)O)ccc2O)CC(=O)O)c1 [PSMA-11, reference compound]
3. O=C([O-])CN1CCN(CC(=O)[O-])CCN(CC(=O)NCC2CCC(C(=O)NC(Cc3c[nH]c4ccccc34)C(=O)NCCCCC(NC(=O)NC(CCC(=O)O)C(=O)O)C(=O)O)CC2)CCN(CC(=O)[O-])CC1.[177Lu+3] (centres unmarked) [[^177Lu]Lu-PSMA-D4]

RESULT:
35.4
2.6
37.0
